test: qHTS profiling for inhibitors of Plasmodium falciparum proliferation (AID 504749);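 further: 0% = DMSO vehicle and full inhibition = artemisinin control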; conditions: P. falciparum in erythrocytes, SYBR Green DNA, 72 h; at 28.7 µM (top of the series); parasite line B
Records with an inconclusive call do not appear.
Give 1 when the value for activity, negative = inhibition is at least 10%. Give -1 when it is less.

| Compound | Assigned class |
| --- | --- |
| O=C(O)c1cc2cc(Cc3cccnc3)ccc2o1 | -1 |
| Oc1c(Cl)cc(Cl)cc1Sc1cc(Cl)cc(Cl)c1O | -1 |
| Cc1c(C)n(CCN(C)C)c2ccc(C(=O)OCCN(C)C)cc12 | -1 |
| CCCCCCCCCCCCCCCCCC(=O)OCC(O)CO (stereo unspecified) | 1 |
